# tested_on: MAP4K1 (HPK1) (Homo sapiens (Human))
# Sequence (Q92918 whole entry): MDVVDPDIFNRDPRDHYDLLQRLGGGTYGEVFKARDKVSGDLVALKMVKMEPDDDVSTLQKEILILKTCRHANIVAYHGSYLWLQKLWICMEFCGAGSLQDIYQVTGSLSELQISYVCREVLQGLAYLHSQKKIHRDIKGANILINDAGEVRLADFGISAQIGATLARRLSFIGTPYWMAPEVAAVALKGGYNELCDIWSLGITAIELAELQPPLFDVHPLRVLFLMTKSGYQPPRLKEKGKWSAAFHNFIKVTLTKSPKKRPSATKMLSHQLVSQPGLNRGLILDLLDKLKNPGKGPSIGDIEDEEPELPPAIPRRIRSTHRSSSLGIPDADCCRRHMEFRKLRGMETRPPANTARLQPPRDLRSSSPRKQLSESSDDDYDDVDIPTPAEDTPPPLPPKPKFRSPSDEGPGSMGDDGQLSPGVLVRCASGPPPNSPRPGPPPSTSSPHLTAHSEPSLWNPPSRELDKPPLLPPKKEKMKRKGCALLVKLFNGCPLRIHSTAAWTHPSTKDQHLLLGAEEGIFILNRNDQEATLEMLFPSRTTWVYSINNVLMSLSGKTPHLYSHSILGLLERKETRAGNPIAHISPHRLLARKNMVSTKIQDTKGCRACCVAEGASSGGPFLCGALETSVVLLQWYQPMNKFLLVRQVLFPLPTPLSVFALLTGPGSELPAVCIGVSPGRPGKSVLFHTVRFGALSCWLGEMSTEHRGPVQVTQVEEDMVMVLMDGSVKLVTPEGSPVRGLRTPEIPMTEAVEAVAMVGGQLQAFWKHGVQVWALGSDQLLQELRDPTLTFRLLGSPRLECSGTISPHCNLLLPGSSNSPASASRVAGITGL
# method_summary: MAP4K1 (HPK1) biochemical enzymatic activity, electrophoretic mobility shift (EZReader 2), ATP at APPKM (26 μM)
# run_conditions: class designation
pIC50: −log10 of the molar value.
quantity_measured: pIC50

1) CC[C@H]1OC(=O)c2ccc(Nc3cc4c(C(C)(C)N)cnc(OC5CC5)c4cn3)nc2[C@@H]1C : 9.00 to 9.51
2) C[C@@H]1OC(=O)c2ccc(Nc3cc4c(C(C)(C)N)cnc(O[C@H]5C[C@H](F)C5)c4cn3)nc2[C@H]1C : 8.00 to 8.96
3) COc1ncc(C(C)(C)N)c2cc(Nc3ccnc(OC(C)C)n3)ncc12 : 9.00 to 9.51
4) COc1ncc([C@H](C)N)c2cc(Nc3ccnc(C(C)(C)F)n3)ncc12 (stereo in doubt) : < 8.00
5) CC[C@](C)(N)c1cnc(OC2CC2)c2cnc(Nc3ccc4c(n3)C3(CC3)C(C)(C)OC4=O)cc12 : > 9.52
6) COc1ncc(C(C)(C)N)c2cc(Nc3ccc4c(n3)CCNC4=O)ncc12 : 9.00 to 9.51
7) COC[C@@](C)(N)c1cnc(OC2CC2)c2cnc(Nc3ccc4c(n3)CC(C)(C)OC4=O)cc12 : 9.00 to 9.51
8) CC[C@@H](F)c1nc(Nc2cc3c(C(C)(C)N)cnc(OC)c3cn2)cnc1C#N (single isomer, unassigned) : 8.00 to 8.96
9) CC[C@@H](N)c1cnc(OC)c2cnc(Nc3ccc4c(n3)[C@@H](C)C(C)(C)OC4=O)cc12 : > 9.52
10) CCCOc1ncc([C@@](C)(N)CC)c2cc(Nc3ccc4c(n3)CC(C)(C)OC4=O)ncc12 : 8.00 to 8.96
11) C[C@H]1OC(=O)c2ccc(Nc3cc4c(C(C)(C)N)cnc(OC5CC5)c4cn3)nc2C1(C)C : > 9.52
12) COc1ncc(C2CCCN2)c2cc(Nc3ccc4c(n3)CC(C)(C)OC4=O)ncc12 (centres unmarked) : < 8.00
13) C[C@@H]1OC(=O)c2ccc(Nc3cc4c(C(C)(C)N)cnc(OCC(F)(F)F)c4cn3)nc2[C@H]1C : > 9.52
14) C[C@@H]1OC(=O)c2ccc(Nc3cc4c([C@@](C)(N)C5CC5)cnc(NC5CC5)c4cn3)nc2[C@H]1C : 8.00 to 8.96
15) CC1(C)Cc2nc(Nc3cc4c(C(C)(C)NCCO)cnc(OC5CC5)c4cn3)ccc2C(=O)O1 : 8.00 to 8.96
16) C[C@@H]1OC(=O)c2ccc(Nc3cc4c(C(C)(C)N)cnc(NC5CCC5)c4cn3)nc2[C@H]1C : > 9.52
17) C[C@@H]1c2nc(Nc3cc4c([C@@](C)(N)C5CC5)cnc(OC5(C)CC5)c4cn3)ccc2C(=O)O[C@@H]1C : 8.00 to 8.96
18) CCOc1ncc(C(C)(C)N)c2cc(Nc3ccc4c(n3)[C@H](C)C(C)(C)OC4=O)ncc12 : > 9.52
19) CC[C@H]1c2nc(Nc3cc4c(C(C)(C)N)cnc(OC5CC5)c4cn3)ccc2C(=O)O[C@H]1C [Compound 128] : 8.00 to 8.96
20) CCOc1ncc(C(C)(C)N)c2cc(Nc3ccc4c(n3)[C@@H](C)C(C)(C)OC4=O)ncc12 : > 9.52
21) CC[C@]1(C)OC(=O)c2ccc(Nc3cc4c([C@](C)(N)C5CC5)cnc(OC5CC5)c4cn3)nc21 (single isomer, unassigned) : 9.00 to 9.51
22) CC1(C)Cc2nc(Nc3cc4c(C(C)(C)NC5COC5)cnc(OC5CC5)c4cn3)ccc2C(=O)O1 : < 8.00
23) CC1(C)Cc2nc(Nc3cc4c(C(C)(C)N)cnc(OCC(F)(F)F)c4cn3)ccc2C(=O)O1 : 9.00 to 9.51
24) CC[C@@](C)(N)c1cnc(OC2CC2)c2cnc(Nc3ccc4c(n3)[C@@H](C)[C@H](C)OC4=O)cc12 : > 9.52
25) COc1ncc(C(C)(C)N)c2cc(Nc3ccc4c(n3)[C@H]3CCC[C@H]3OC4=O)ncc12 : > 9.52
26) CC[C@](C)(N)c1cnc(OC2CC2)c2cnc(Nc3ccc4c(n3)C(C)(C)OC4=O)cc12 : < 8.00
27) C[C@@H]1OC(=O)c2ccc(Nc3cc4c(C(C)(C)N)cnc(OC5(C)COC5)c4cn3)nc2[C@H]1C : 9.00 to 9.51
28) CC[C@@H]1OC(=O)c2ccc(Nc3cc4c(C(C)(C)N)cnc(OC5CC5)c4cn3)nc2[C@H]1C : 8.00 to 8.96
29) C[C@@H]1OC(=O)c2ccc(Nc3cc4c([C@](C)(N)C5CC5)cnc(NC5CC5)c4cn3)nc2[C@H]1C : > 9.52

Entry source: patent US11534441B2
